Recorded values, source ChEMBL document CHEMBL4610114.

- ASSAY_DETAILS: Protein binding in rat plasma assessed as unbound fraction
- Assay type: ADME, cell-free
ENDPOINT_LABEL: fraction unbound
I only need the number, thanks.

Please look at this molecule and report its fraction unbound: `Cc1[nH]nc2[nH]c(=O)cc([C@H]3C[C@H]4C[C@@H]3C[C@@H]4CC#N)c12`
0.22

###

- TARGET_OR_TEST_SYSTEM: Tyrosine-protein kinase JAK2 (Homo sapiens)
ENDPOINT_LABEL: IC50 (µM)
Report as a plain number; the unit µM is understood.

1. Cc1[nH]nc2[nH]c(=O)c(CCO)c(C3CCCCC3)c12: 3.9

Fill: IC50 (Tyrosine-protein kinase JAK2 (Homo sapiens)) for this compound `Cc1[nH]nc2[nH]c(=O)cc([C@H]3CC[C@H](NS(=O)(=O)C4CC4)CC3)c12`
2.5

For Tyrosine-protein kinase JAK2 (Homo sapiens), give the measured IC50 of the entry `Cc1[nH]nc2[nH]c(=O)cc([C@H]3CC[C@H](C(=O)NC4CC4)CC3)c12`
9.4

# return IC50 for `Cc1[nH]nc2[nH]c(=O)cc([C@H]3CC[C@H](N)CC3)c12` , test system: Tyrosine-protein kinase JAK2 (Homo sapiens)
18

System Tyrosine-protein kinase JAK2 (Homo sapiens). Read-out IC50. Item Cc1[nH]nc2[nH]c(=O)cc([C@H]3CCCC[C@H]3C)c12 (racemic) . Report value.
0.34

###

Assay system Tyrosine-protein kinase JAK2 (Homo sapiens, UniProt O60674); read-out recorded as IC50.

The examples below pair each entry with its known result.
1. Cc1[nH]nc2[nH]c(=O)cc([C@H]3CC[C@H](C(=O)NC4CC4)CC3)c12: > 40 µM
2. Cc1[nH]nc2[nH]c(=O)cc(CC3CCC3)c12: > 40 µM
3. Cc1[nH]nc2[nH]c(=O)cc([C@H]3C[C@H]4C[C@@H]3C[C@H]4CC#N)c12: > 43 µM
4. O=c1cc(C2CCCCC2)c2c(C3CC3)[nH]nc2[nH]1: > 40 µM
5. Cc1[nH]nc2[nH]c(=O)cc([C@H]3CC[C@H](NS(=O)(=O)CC4CCC4)CC3)c12: > 10 µM

Report IC50 under test system Tyrosine-protein kinase JAK2 (Homo sapiens, UniProt O60674) for `Cc1[nH]nc2[nH]c(=O)cc([C@H]3C[C@H]4C[C@@H]3C[C@@H]4CC#N)c12` .
2.8 µM

Supply IC50 measured with Tyrosine-protein kinase JAK2 (Homo sapiens, UniProt O60674) for `Cc1[nH]nc2[nH]c(=O)cc([C@H]3CC[C@H](CC(=O)N4CC(C#N)C4)CC3)c12` .
Sequence (O60674 whole entry): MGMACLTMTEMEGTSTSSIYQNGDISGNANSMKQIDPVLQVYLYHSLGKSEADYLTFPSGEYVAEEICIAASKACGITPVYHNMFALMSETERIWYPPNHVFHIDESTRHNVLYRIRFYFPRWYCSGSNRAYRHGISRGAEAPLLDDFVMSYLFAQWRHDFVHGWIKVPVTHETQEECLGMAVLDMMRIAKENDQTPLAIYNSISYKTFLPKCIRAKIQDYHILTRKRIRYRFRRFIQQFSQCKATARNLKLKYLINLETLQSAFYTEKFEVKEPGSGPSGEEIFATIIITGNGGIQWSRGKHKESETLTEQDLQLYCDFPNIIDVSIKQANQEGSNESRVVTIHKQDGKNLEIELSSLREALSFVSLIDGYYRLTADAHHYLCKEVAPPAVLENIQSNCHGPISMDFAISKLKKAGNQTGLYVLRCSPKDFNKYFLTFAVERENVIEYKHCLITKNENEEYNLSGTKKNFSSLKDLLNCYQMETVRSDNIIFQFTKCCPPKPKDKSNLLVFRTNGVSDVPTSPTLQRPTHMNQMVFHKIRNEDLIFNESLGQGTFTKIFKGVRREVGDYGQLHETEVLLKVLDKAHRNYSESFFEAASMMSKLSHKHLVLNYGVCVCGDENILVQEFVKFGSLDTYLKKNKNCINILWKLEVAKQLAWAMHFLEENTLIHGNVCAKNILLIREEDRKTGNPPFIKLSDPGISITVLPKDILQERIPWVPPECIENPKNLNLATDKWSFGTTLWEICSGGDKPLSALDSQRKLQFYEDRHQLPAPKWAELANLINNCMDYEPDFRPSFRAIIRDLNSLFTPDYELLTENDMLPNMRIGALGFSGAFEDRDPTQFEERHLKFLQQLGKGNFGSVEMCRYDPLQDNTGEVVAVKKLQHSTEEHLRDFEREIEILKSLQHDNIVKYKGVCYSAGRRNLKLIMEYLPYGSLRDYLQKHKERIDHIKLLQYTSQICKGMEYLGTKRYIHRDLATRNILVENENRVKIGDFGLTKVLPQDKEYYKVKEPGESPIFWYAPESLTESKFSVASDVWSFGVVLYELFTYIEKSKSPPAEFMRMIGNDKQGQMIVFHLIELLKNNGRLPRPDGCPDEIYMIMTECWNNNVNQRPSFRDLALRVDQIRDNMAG
> 30 µM

State, for Tyrosine-protein kinase JAK2 (Homo sapiens, UniProt O60674), measured IC50 of the compound listed here: Cc1[nH]nc2[nH]c(=O)cc([C@H]3CC[C@H](CC(=O)N4CCC(c5ccccc5)C4)CC3)c12 (mixture of isomers)
2.4 µM

Print Tyrosine-protein kinase JAK2 (Homo sapiens, UniProt O60674) IC50 for Cc1[nH]nc2[nH]c(=O)cc([C@H]3CCCC[C@H]3C)c12 (racemic) .
8.9 µM

Print Tyrosine-protein kinase JAK2 (Homo sapiens, UniProt O60674) IC50 for `CCc1[nH]nc2[nH]c(=O)cc(C3CCCCC3)c12` .
> 40 µM
